Recorded values, source patent US20060014776A1.

test: Pharmacokinetics; type: in vivo, male SCID mice bearing H116 tumors; conditions: male, SCID, mouse, in vivo; 18.5 mg/kg, 24 h after drug administration; read-out: concentration of compound IV

[
  {
    "Molecule": "COc1cc(-c2ccnc3c2C(=O)c2ncc(C)cc2C3=O)ccc1OCCCN [Compound IV]",
    "concentration at 24 h": "~100 ng/mL"
  }
]
